Provenance of the data: ChEMBL document CHEMBL3991601

Molecular target: Eukaryotic translation initiation factor 2-alpha kinase 1 (Homo sapiens); further: in the data inactive means no Kd found up to 30 µM
Sequence (Q9BQI3 whole entry): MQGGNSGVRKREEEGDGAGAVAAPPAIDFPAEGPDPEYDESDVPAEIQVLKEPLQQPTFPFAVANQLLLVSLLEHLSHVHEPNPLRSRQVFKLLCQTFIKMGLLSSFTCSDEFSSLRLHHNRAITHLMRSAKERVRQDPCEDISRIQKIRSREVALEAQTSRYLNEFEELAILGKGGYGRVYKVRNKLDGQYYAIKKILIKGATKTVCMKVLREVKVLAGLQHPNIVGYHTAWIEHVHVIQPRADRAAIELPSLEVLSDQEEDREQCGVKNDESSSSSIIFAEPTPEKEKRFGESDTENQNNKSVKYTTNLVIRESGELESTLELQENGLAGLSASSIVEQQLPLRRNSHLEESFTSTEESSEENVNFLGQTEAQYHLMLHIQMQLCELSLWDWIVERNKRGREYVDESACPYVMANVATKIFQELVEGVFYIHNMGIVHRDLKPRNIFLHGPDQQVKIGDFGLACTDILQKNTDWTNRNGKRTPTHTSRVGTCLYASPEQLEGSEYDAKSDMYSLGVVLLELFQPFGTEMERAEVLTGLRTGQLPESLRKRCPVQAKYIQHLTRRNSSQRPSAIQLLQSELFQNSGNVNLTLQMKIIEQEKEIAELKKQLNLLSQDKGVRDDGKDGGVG
Calls of active or inactive are those of the source.
Hello, when you answer, please use one of the following outcomes: active, inactive

Q: Record request — test call for NC(=O)c1c(OCc2c(F)cc(Br)cc2F)nsc1NC(=O)NCCCCN1CCCC1
A: active

Q: Record request — test call for COc1cc([C@@H]2c3cc4c(cc3[C@H](O)[C@H]3COC(=O)[C@@H]23)OCO4)cc(OC)c1OC
A: inactive

Q: Record request — test call for CC(=O)NCC(=O)N1[C@@H]2CC[C@H]1c1ccc(Nc3ncc(C(F)(F)F)c(NC4CCC4)n3)cc12
A: inactive

Q: Record request — test call for Cn1cc(-c2cnc3ccc4ccc(CS(=O)(=O)NCc5ccccn5)cc4c(=O)c3c2)cn1
A: inactive

Q: Record request — test call for COCC(=O)NC/C=C/c1ccc2ncnc(Nc3ccc(Oc4ccc(C)nc4)c(C)c3)c2c1
A: inactive

---

Target: Tyrosine-protein kinase Lyn (Homo sapiens); further: in the data inactive means no Kd found up to 30 µM
Sequence (P07948 whole entry): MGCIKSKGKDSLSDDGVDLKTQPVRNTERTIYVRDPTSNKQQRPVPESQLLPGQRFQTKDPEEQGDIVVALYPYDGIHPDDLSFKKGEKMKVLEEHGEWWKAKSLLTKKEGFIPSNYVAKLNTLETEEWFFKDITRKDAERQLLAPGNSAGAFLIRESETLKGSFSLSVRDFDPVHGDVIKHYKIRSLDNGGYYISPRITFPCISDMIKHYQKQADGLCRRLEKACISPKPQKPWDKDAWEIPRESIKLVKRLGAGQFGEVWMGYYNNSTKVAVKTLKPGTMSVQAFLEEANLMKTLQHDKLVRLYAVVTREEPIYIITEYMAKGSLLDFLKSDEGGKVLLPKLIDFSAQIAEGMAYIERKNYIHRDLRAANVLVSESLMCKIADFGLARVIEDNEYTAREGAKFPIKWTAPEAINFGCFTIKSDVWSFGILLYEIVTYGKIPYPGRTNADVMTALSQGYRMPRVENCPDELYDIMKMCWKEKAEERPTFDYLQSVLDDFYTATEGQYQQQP
Active and inactive are the calls of the source.
Hello, when you answer, please use one of the following outcomes: 1 (yes) (active), 0 (no) (inactive)

Consider the worked cases shown below.
C[C@@H](NC(=O)c1ncnc(N)c1Cl)c1ncc(C(=O)Nc2cc(C(F)(F)F)c(Cl)cn2)s1 [TOVORAFENIB]; 0 (no)
COc1ccc(S(=O)(=O)N(C(C)=O)c2ccccc2/C=C/c2cc[n+]([O-])cc2)cc1 [HMN-214]; 0 (no)

Q: Record request — test call for CN1CCN(CCOc2cc(OC3CCOCC3)c3c(Nc4c(Cl)ccc5c4OCO5)ncnc3c2)CC1 [SARACATINIB]
A: 1 (yes)

Q: Record request — test call for Cc1nc(NC(=O)N2CCC[C@H]2C(N)=O)sc1-c1ccnc(C(C)(C)C(F)(F)F)c1 [ALPELISIB]
A: 0 (no)

Q: Record request — test call for O=C(Nc1nc2cccc(-c3ccc(CN4CCS(=O)(=O)CC4)cc3)n2n1)C1CC1 [FILGOTINIB]
A: 0 (no)

Q: Record request — test call for CN1C/C=C/CCOc2cccc(c2)-c2ccnc(n2)Nc2cccc(c2)C1 [ZOTIRACICLIB]
A: 0 (no)

Q: Record request — test call for O=C(Nc1cc(C(F)(F)F)cc(C(F)(F)F)c1)c1cc(Cl)ccc1O [IMD-0354]
A: 0 (no)

Q: Record request — test call for Cn1cc(-c2cnn3c(N)c(Br)c([C@@H]4CCCNC4)nc23)cn1 [SCH-900776]
A: 0 (no)

---

Target: Mitotic checkpoint serine/threonine-protein kinase BUB1 (Homo sapiens, UniProt O43683); further: in the data inactive means no Kd found up to 30 µM
Sequence (O43683 whole entry): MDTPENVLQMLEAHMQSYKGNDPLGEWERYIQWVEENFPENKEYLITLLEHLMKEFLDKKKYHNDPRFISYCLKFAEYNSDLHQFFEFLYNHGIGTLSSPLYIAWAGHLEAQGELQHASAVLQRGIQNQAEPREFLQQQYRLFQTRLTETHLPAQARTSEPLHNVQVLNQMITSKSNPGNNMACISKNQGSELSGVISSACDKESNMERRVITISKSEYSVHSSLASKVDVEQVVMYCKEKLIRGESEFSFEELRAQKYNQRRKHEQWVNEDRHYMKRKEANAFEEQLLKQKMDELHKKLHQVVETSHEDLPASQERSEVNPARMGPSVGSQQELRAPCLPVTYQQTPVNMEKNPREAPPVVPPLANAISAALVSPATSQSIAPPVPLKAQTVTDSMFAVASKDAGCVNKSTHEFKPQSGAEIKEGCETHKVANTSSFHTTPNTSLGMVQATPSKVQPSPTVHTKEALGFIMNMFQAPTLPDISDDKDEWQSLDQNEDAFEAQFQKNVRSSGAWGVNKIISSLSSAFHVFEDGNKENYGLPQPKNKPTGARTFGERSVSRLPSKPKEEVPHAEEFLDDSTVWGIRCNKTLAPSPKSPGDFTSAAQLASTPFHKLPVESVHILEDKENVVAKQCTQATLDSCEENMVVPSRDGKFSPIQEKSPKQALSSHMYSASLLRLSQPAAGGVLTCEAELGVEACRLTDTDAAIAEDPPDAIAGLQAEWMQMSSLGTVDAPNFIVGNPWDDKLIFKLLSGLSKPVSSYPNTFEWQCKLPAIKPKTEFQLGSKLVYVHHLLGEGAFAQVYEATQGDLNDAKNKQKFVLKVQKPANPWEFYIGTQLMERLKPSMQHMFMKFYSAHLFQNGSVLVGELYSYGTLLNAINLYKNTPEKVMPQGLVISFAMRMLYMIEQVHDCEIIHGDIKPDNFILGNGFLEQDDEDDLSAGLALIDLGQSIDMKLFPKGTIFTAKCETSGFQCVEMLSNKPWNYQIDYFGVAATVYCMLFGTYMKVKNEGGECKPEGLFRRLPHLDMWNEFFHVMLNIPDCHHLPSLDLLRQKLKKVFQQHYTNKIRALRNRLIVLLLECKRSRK
Active and inactive are the calls of the source.
Hello, when you answer, please use one of the following outcomes: y for active, n for inactive

Consider the worked cases shown below.
Cn1cc(-c2cnc3ccc4ccc(CS(=O)(=O)NCc5ccccn5)cc4c(=O)c3c2)cn1; n
O=c1[nH]ccc2cc(OC3CCNCC3)ccc12 [SAR-407899 FREE BASE]; n
C[C@@H](Oc1cc(C(=O)Nc2ccc(C(=O)N3CCN(C)CC3)cc2)nnc1N)c1c(Cl)ccc(F)c1Cl; n
CN(C[C@@H]1COCCO1)S(=O)(=O)Nc1ccc2ccc3ncc(-c4cnn(C)c4)cc3c(=O)c2c1; n
COc1cc2ncnc(Oc3cccc(NC(=O)Nc4cc(C(C)(C)C(F)(F)F)on4)c3)c2cc1OC; n

Q: Record request — test call for N#CC[C@H](C1CCCC1)n1cc(-c2ncnc3[nH]ccc23)cn1
A: n
